System: PPARg DBDmut IVT, anti-PPARg (DBD mutation: PPARg1 K132A/R137A, NR concentration 270 nM)
Test: PBM binding z-score (relative to random genomic background probes); higher = stronger binding; sequences stand for … in GC…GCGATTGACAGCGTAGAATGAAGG
sequences and their reported PBM binding z-score

Here's what some known entries look like.
- AGAACGAGGGCACGCTGAGGTGATAGCAGAGTAG: 0.179
- CGTCCAAGGTCAGCAGGTCAGTTAAAGCGACGTG: -0.676
- CCTACTGGGCCATCAGGTCAGTGATATCAACGTT: 0.096
- CCTTACGGGTCACGAGATTATAGCACGACGAGCG: 0.779
- AGCATGAGGTTATTAAGATCAGGGAATTGCGGTC: -0.586

Could you now look at the following sequence, please?
Query PBM binding z-score on PPARg DBDmut IVT, anti-PPARg (DBD mutation: PPARg1 K132A/R137A, NR concentration 270 nM) for `CCTATTAGTTGACCATAAGTGCAACCGAAGCTCG`
0.839

----------
Test system: PXR homodimer (NR concentration 270 nM)
Assay: PBM binding z-score (relative to random genomic background probes); higher = stronger binding; sequences stand for … in GC…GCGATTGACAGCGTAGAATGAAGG
Use 0.9 as the dividing line for PBM binding z-score, with the line itself on the t side and lower values as f.

• CATACAGGGTCAGCTAGGCCAGAGGAGGGACGGC = f
• ACTAGCAGCCCAAGTTTGGGTCACTCAAACAAAG = f
• CCTAGTTGATCAGGAGGTCACACACCGGATATGA = t
• GCGACTGGGGCATCACCAGGTTACCATAACTTAA = f
• CGAACTAGGTCATCCAGGACAGTGATTACATTGA = t

Exam item: decide whether the reported PBM binding z-score for `GCGACTGGGGCAAAGCAGGTTACAATAAGGTTGG` is at least 0.9.
f

Check if PBM binding z-score >= 0.9 (inclusive). Item: `CAAACTGGGTCACCGGAAGGTCAAAGTCCGCATG`
t

Is PBM binding z-score for `ACAGACAGGTGAGGGAAGGTAACTCAGCTGGACG` at or above 0.9?
f

Test whether the sequence `ATCTCTAGGTAAAAGTTAAGTGAATCCCGAGGAT` records PBM binding z-score of 0.9 or higher.
f

Confirm if PBM binding z-score reported for the sequence `TATCGGAGGACACGAAAGGTCAGAGCTCGACATC` is 0.9 or above.
t

Record `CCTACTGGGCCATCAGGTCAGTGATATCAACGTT` ; criterion: PBM binding z-score no lower than 0.9. Met?
f

Given the entry `TTACGAAGGTGAGCTGAGGTCGTTGATCCAACTC` , answer whether its PBM binding z-score meets or surpasses 0.9.
t

----------
Tested on: RXRa DBDmut IVT, anti-RXR (DBD mutation: RXRa K156A/R161A, NR concentration 90 nM)
Assay: PBM binding z-score (relative to random genomic background probes); higher = stronger binding; sequences stand for … in GC…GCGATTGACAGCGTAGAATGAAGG
Parameter PBM binding z-score: see the listing below.
I only need the number, thanks.

Consider the following illustrative entries.
* ACTTACGGGTCAACGAGGTGATAGCACGCGTATA | 2.19
* ATACCAAGGTGATCGGGAGGTCGTTGATACTAAC | 0.167
* TCTATTAGTTGTTTAGGGCAACCGAAACAGCGGA | 0.754
* CAAACTAGGTCAAGGTGAAAGTCGGTTTGTGCCA | 1.61
* ACAGACAGGTGATGAAGGTACCTCAGGCTATCAT | -0.579

With those in mind, consider the next sequence.
# input sequence: `GCTGCTAGGTCAAGTTGGTCAGCTAACGGGTACG` ; wanted: its PBM binding z-score
1.81

----------
Tested on: PPARg:RXRa (NR concentration 180 nM, RXRa partner concentration 90 nM)
Assay: PBM binding z-score (relative to random genomic background probes); higher = stronger binding; sequences stand for … in GC…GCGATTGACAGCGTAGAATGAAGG
// values below are reported PBM binding z-score
# respond with the number and nothing more

# annotated cases, reported PBM binding z-score shown
• TGAATGAGGTTAAAGATCAGGGTACGTGGCGTCG = 5.59
• ATACCAAGGTGATCGTGCGGTCGTTGATACTAAC = 0.122
• TCTTATAGGTAAATGCTAGGTGAAAGTCCGATCT = 0.531
• TAGCCTAGGTGATTCAGGGGCCAGTATAGAAAGC = 0.0919
• ATCACTAGGTAAAGTTCAGTGAAAGATCGATAGA = 2.59
• ATATGTAGGTTAGCTGGGGTCATTTAGACTAGGC = 5.68

Lab note: need PBM binding z-score with PPARg:RXRa (NR concentration 180 nM, RXRa partner concentration 90 nM) for entry `ATCTCTAGCTAAAGTTCAGTGAAAGATCGATAGA` , please look it up.
1.63

Form: Entry = `CCTCGTTGGTCAAGGTCACACACGCTATAGGTAC` | System = PPARg:RXRa (NR concentration 180 nM, RXRa partner concentration 90 nM) | PBM binding z-score = ____
2.47

Notebook entry, PPARg:RXRa (NR concentration 180 nM, RXRa partner concentration 90 nM) assay: PBM binding z-score of `CCGACTGGCGCATAAGGTTACCATAAGCCAGCCC` = ?
0.557

----------
// values below are reported PBM binding z-score
Test system: RARg homodimer (NR concentration 270 nM)
Test: PBM binding z-score (relative to random genomic background probes); higher = stronger binding; sequences stand for … in GC…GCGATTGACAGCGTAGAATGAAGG
# output: bare number, no unit

Recorded results for 3 sequences are shown here.
• CGTCCAAGGTCAGCAGCTCAGTGAAAGCGACGTG = 5.8
• TCATATAGGTAAAAGGTGAAACTCGGTGTGGTAA = 1.17
• ACTATTAGTTGACGTAGGGCAACCGATACGACGC = 0.82

Next sequence, please.
Param item = `TCTGCTAGGTCAACGATGGTCAGCTCATCTGCTA` ; retrieve measured PBM binding z-score.
4.62

----------
Item-by-item account of PBM binding z-score
Tested on: LXRa:RXRa (NR concentration 270 nM, RXRa partner concentration 90 nM)
Assay: PBM binding z-score (relative to random genomic background probes); higher = stronger binding; sequences stand for … in GC…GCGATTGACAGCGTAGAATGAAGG
I'd appreciate a reply containing only the number, no unit.

• TAGCCTAGGTCATGCGGGCTAGTATAGTGTCGGC = 2.96

Proceed to the following item.
Return reported PBM binding z-score; argument: `ATATGTAGGTTAGCTGGGGTCATTAAGACTAGGC`
5.39

----------
Test system: PPARg homodimer (NR concentration 180 nM)
Assay: PBM binding z-score (relative to random genomic background probes); higher = stronger binding; sequences stand for … in GC…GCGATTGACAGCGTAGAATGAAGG
// PBM binding z-score lookup, one value per entry
Simply state the number, no unit and no words.

Solved cases below.
- ATCGAAAGGTCGAGGTGAGTATCGAGAAAGGGAA: 1.5
- CATAGAGGGTCAGCTAGGCCAGAGTAGGGACGGC: 1.26
- GCTCGAAGGACAAGGTCAGAGCTTTGTCCGTAGA: 0.73
- TGAATGAGGTTAAGGATCAGGGAACGTGGCGTCG: 0.99
- ATATGGAGGTTACATCCGGGTCATTCAGGCTATG: 2.15
- TGAATGAGGTTATCAGATCAGGGAACGTTGCAAA: 1.69
- GCTTACGGGTCAAAGGTTTTAGCATGAATAGAAT: 3.2
- CCCGACAGGTGAAAGGTAACTCAGTCTGGTACGC: 0.815
- CGTCCAAGGTCAAATGTCAGTGAAGAGATGACGG: 2.49
- CCTAGCAGGCCAGGGACACTCAAGCATTTCGCTT: -0.379

What value of measured PBM binding z-score is listed for `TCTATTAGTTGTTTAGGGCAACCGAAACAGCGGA` ?
0.794

What measured PBM binding z-score goes with `GCGACTGGGGCATCAGCAGGTAACCATAACTTAA` ?
0.206

----------
Tested on: THRa:RXRa (NR concentration 90 nM, RXRa partner concentration 90 nM)
Experiment: PBM binding z-score (relative to random genomic background probes); higher = stronger binding; sequences stand for … in GC…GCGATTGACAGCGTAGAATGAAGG
Each entry below carries its reported PBM binding z-score.

Below: 8 sequences and their reported PBM binding z-score.
• CCTATTAGTTGACCATATGGGCAACCGAAGCTCG = 0.00602
• TCTTGTAGATCAAGCAGGTTCAGAAAGCCTGAGT = 0.613
• GGAACTAGGGCAAGTTGATAGCAGAGTTTGATGG = 0.0165
• ATCTCTAGGTAAGACGCAGTTCAGTGAAGAACGC = 0.223
• TAGCCTAGGTCCTGGGCCAGTATACCACGCGAAC = -0.414
• ACTAGCAGGCCACGTTTGGGTCACTCAAACAAAG = 2.64
• CGTCCAAGGTCAATGCTAGGTCAGCGAAAGCATT = 4.61
• TTACCATGGTGAAAGGTCGTTGATGCACGCCTTG = 1.64

Lookup: PBM binding z-score / THRa:RXRa (NR concentration 90 nM, RXRa partner concentration 90 nM) / `TCTAGCAGGCAAGAGGGTCACTCAAGAGGTACGG`
1.47

Please tell me: PBM binding z-score of `CGAGACAGGTGAGAAGGTAACTCAGCCTCGATTA` , system THRa:RXRa (NR concentration 90 nM, RXRa partner concentration 90 nM)?
0.0357

Can you look up PBM binding z-score on THRa:RXRa (NR concentration 90 nM, RXRa partner concentration 90 nM) for `ATAACAAGGTGATCGTGAGGTCGTTGATACTAAC` ?
3.48

Form: Entry = `ATCTCTAGGTAACGAAGTTCAGTGAATGCCGAAC` | System = THRa:RXRa (NR concentration 90 nM, RXRa partner concentration 90 nM) | PBM binding z-score = ____
0.946
